System: MS2 coat protein
test_method_notes: apparent KD of MS2 coat protein; designed switch direction (-1 OFF switch, 1 ON switch): -1; higher = weaker reporter binding
experimental_setup: input ligand: none
Measured apparent KD of MS2 coat protein, listed per entry.
Value expressed in nM; do not type the unit.

Please review the following examples before continuing.
- CUAGAGUGAGGAUAUACGAGAUCGAAAGAUCGGCGAUCCCUACAUGAGGAUCACCCAUGUAGAAGGCACUCUAG [Mod 12 - Jieux - Exclusion 2] (Eterna round: R97, puzzle: Exclusion 2): 16
- AGCGAGGAGACAGGAUAUGAGAAUAGAUAGAACUCAGAAGGGUCACAUGAGGAUCACCCAUGUAAAGUCUUGAGGCUGCGUGGU [Prohibition 8 - Jieux - Exclusion NG 1] (Eterna round: R96, puzzle: Exclusion NG 1): 88.2
- ACCUUACUGGUCAGGAUAUACAGUCUCGGGUGGGUGUAGAAGGGACAUGAGGAUCACCCAUGUAGGUUGCAGCA [alecazam56] (Eterna round: R97, puzzle: Brourd's mod of Exclusion 4): 156

Task: Entry CUGGAGUCAGGAUAUGACGCAGUCCGCCCAAGUGGCGGAAAUCAGAAGGGACUUGAGGAUCACCCAAGUAAAAG [Resorama] (Eterna round: R97, puzzle: Exclusion 4) has what apparent KD of MS2 coat protein?
Output: 29.8

###

System: K4 kissing-loop RNA reporter;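 also: bound reporter read as fluorescence of individual clusters on recovered sequencing chips by microscopy, with normalized cluster intensities fitted with a binding model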
test_method_notes: apparent KD of K4 kissing-loop reporter; higher = weaker reporter binding
experimental_setup: Eterna round: R107; input ligand: none
measured_quantity: apparent KD of K4 kissing-loop reporter (nM)
Quick reminder: number only, in nM, skip the unit.

Worked examples follow.
- AGUGUUGUAUGGCGGUUUGUCACUUAGGAUCAGGAUAUAUAAACAAAUAGAAGGGAUGGCGGAGUGAUGUUCCGCCGGCCGCCAU [FMN A Exl V7]: 121
- AAAAUAAACCAGUGAUGUUGGUGUCUAGAUACCAGCGACAAAAGUCGCCCUUGGCAGCUACGGACGUACAAAAUAAGUACGUCCU [MatMod 9 - Jieux - Same State - Theophylline A]: 472
- UGAUAGGACAGAAGGAGCGGGAGUGAUGUUCCCAAAAGGGUAAGGUGUCAAAAGACACCCUUCCAGGUAGGUCGCUGUCCUAUCU: 97.5
- GCGGACAUUCGCAGUGAUGUUGCGACGGAAGGAGCGGAUGAAAAUCCAGGUAGGUCGCCGACAAAAUUAAUUUUAAUGUGUUCGC [#03 K4 Arginine A Same State]: 437
- UUAUCUAUAUUCGAUACCAGUACCCUUUGUGUUAAUCCUUUUAUCAGUGAUGUUGAUGUGUACCCUUGGCAGCGGGUAUGGGUUU [KL-XTheo-B15]: 437
- CCAUUCAUUUACGAUACCAGUCUAAUAUAUUUAAUCAAAACCCUCGCCGAGUGAUGUUCGGACCCUUGGCAGCGUCUGCGAGAGG [oookmullin]: 598
- UAGUCAUACAGAGGAUAUCGUAUGAGUGAUGUUCAUACGACAUAAUCAAAUUGUAUUGAUGUUCGACGAGAAGGCUGUAUGACUA [FMN B Ex t1]: 124
- GGUUUAUAGGAGGAUACCAGUACGGAUAAAGUACGUUAAUAGUAGAGUGAUGUUCUAAAGUACCCUUGGCAGCUUAGAGUGAGUG [ExTheophylB.M]: 136

Task: Entry under review: AACGUUUUGUGAAGGAGCGCGAUAAGCAGUGAUGUUGCUUACUUACAAUUUAUAUUUUACACGCAGGUAGGUCGCACAAUACGUA [JR_SSArginiB_Sub017] . Reported apparent KD of K4 kissing-loop reporter?
Output: 190

Task: apparent KD of K4 kissing-loop reporter for GCCUUUUUUCGAGCUACAGCUCGAUUUGGUCGAGGACCGGUACGGCCGCCACUCGAAUGAUAGUGAUGUUAUCAUUAUGGCAUAA [JR_ExcTryptoA_Sub023] ?
Output: 176
